assay: absorption spectrum (maximum absorption wavelength, molar extinction coefficient); format: physicochemical
ATTRIBUTE MEASURED: molar extinction coefficient

INSERT INTO results (compound, result) VALUES
  ('COCCOCCOCCOCCOCCOCCOCCC(=O)N1CCC(CNc2c(O)c3c(=O)c(Br)c(OC)c4c5c(OC)cc(=O)c6c(NCC7CCN(C(=O)CCOCCOCCOCCOCCOCCOCCOC)CC7)c(OC)c7c(c(c2C=C(C)C7C(C)=O)c34)c65)CC1 (stereo not drawn) [HB-31b-Br-PEG6]', '31,500 M^−1cm^−1'),
  ('COc1c(O)c2c(=O)cc(OC)c3c4c(OC)cc(=O)c5c(NCCCC(=O)O)c(NCC(=O)O)c6c(c(c1C(C(C)=O)C(C)=C6)c23)c54 (stereo not drawn) [HB-43a]', '26,500 M^−1cm^−1'),
  ('COc1c(O)c2c(=O)cc(OC)c3c4c(OC)cc(=O)c5c(NCCS(=O)(=O)OC)c(NCCS(=O)(=O)OC)c6c(c(c1C(C(C)=O)C(C)=C6)c23)c54 (stereo not drawn) [HB-12a]', '23,500 M^−1cm^−1'),
  ('COCCOC(=O)C1CCCC(Nc2c(NC3CCCC(C(=O)OCCOC)C3)c3c(=O)cc(OC)c4c5c(OC)cc(=O)c6c(O)c(OC)c7c(c(c2C=C(C)C7C(C)=O)c34)c65)C1 (stereo not drawn) [HB-15a-PEG1]', '30,000 M^−1cm^−1'),
  ('COCCOCCOCCOCCOCCOCCOCCC(=O)OCC1(Nc2c(O)c3c(=O)cc(OC)c4c5c(OC)cc(=O)c6c(NC7(COC(=O)CCOCCOCCOCCOCCOCCOCCOC)CC7)c(OC)c7c(c(c2C=C(C)C7C(C)=O)c34)c65)CC1 (stereo not drawn) [HB-35b-PEG6]', '30,500 M^−1cm^−1'),
  ('COc1c2c3c4c(c(NC5CCC(C(=O)O)CC5)c(=O)c5c(O)cc(OC)c(c6c(OC)cc(NC7CCC(C(=O)O)CC7)c(c1=O)c63)c54)C=C(C)C2C(C)=O (stereo not drawn) [HB-14d]', '27,000 M^−1cm^−1'),
  ('COc1c(NCC2CCC(C(=O)OCCCC[N+](C)(C)C)CC2)c2c(=O)cc(OC)c3c4c(OC)cc(=O)c5c(O)c(NCC6CCC(C(=O)OCCCC[N+](C)(C)C)CC6)c6c(c(c1CC(C)=C6)c23)c54 (stereo not drawn) [HC-13b-C4-N^+]', '31,500 M^−1cm^−1'),
  ('COc1c2c3c4c(c(NCCO)c(=O)c5c(NCCO)cc(OC)c(c6c(OC)cc(O)c(c1=O)c63)c54)C=C(C)C2', '31,000 M^−1cm^−1'),
  ('COc1c(O)c2c(=O)cc(OC)c3c4c(OC)cc(=O)c5c(NCCOCCO)c(NCCOCCO)c6c(c(c1C(C(C)=O)C(C)=C6)c23)c54 (stereo not drawn)', '30,000 M^−1cm^−1'),
  ('COc1c2c3c4c(c(NCCCCCCS(=O)(=O)O)c(=O)c5c(NCCCCCCS(=O)(=O)O)cc(OC)c(c6c(OC)cc(O)c(c1=O)c63)c54)C=C(C)C2C(C)=O (stereo not drawn) [HB-11c-C6-SO3H]', '31,500 M^−1cm^−1'),
  ('COc1c2c3c4c(c(NC(CO)C(=O)O)c(=O)c5c(O)cc(OC)c(c6c(OC)cc(NC(CO)C(=O)O)c(c1=O)c63)c54)C=C(C)C2C(C)=O (stereo not drawn) [HB-23d]', '21,500 M^−1cm^−1'),
  ('COC(=O)C(CO)Nc1c(O)c2c(=O)cc(OC)c3c4c(OC)cc(=O)c5c(NC(CO)C(=O)OC)c(OC)c6c(c(c1C=C(C)C6C(C)=O)c23)c54 (stereo not drawn) [HB-24b]', '21,500 M^−1cm^−1'),
  ('COc1c(O)c2c(=O)cc(OC)c3c4c(OC)cc(=O)c5c(NCCCC(=O)NCCS(=O)(=O)O)c(NCCCC(=O)NCCS(=O)(=O)O)c6c(c(c1CC(C)=C6)c23)c54', '31,000 M^−1cm^−1'),
  ('COc1c2c3c4c(c(NC5CCC(C(=O)O)C5)c(=O)c5c(NC6CCC(C(=O)O)C6)cc(OC)c(c6c(OC)cc(O)c(c1=O)c63)c54)C=C(C)C2C(C)=O (stereo not drawn) [HB-19c]', '25,500 M^−1cm^−1'),
  ('COc1c(O)c2c(=O)cc(OC)c3c4c(OC)cc(=O)c5c(NC(CC(N)=O)C(=O)O)c(NC(CC(N)=O)C(=O)O)c6c(c(c1C(C(C)=O)C(C)=C6)c23)c54 (stereo not drawn) [HB-26a]', '20,500 M^−1cm^−1'),
  ('COc1c(O)c2c(=O)cc(OC)c3c4c(OC)cc(=O)c5c(NCCSCCOCCO)c(NCCSCCOCCO)c6c(c(c1C(C(C)=O)C(C)=C6)c23)c54 (stereo not drawn)', '30,500 M^−1cm^−1'),
  ('COCCOCCC(=O)OCCOCCNc1c(NCCCC(=O)O)c2c(=O)cc(OC)c3c4c(OC)cc(=O)c5c(O)c(OC)c6c(c(c1C=C(C)C6C(C)=O)c23)c54 (stereo not drawn) [HB-48a-PEG1]', '31,500 M^−1cm^−1'),
  ('COCCOCCOCCOCCOCCOCCOC(=O)CCCNc1c(O)c2c(=O)cc(OC)c3c4c(OC)cc(=O)c5c(NCCCC(=O)OCCOCCOCCOCCOCCOCCOC)c(OC)c6c(c(c1C=C(C)C6)c23)c54', '30,000 M^−1cm^−1'),
  ('COCCOCCOCCOCCOCCOCCOC(=O)CCCNc1c(O)c2c(=O)cc(OC)c3c4c(OC)cc(=O)c5c(NCCCC(=O)OCCOCCOCCOCCOCCOCCOC)c(OC)c6c(c(c1C=C(C)C6C(C)=O)c23)c54 (stereo not drawn)', '30,000 M^−1cm^−1'),
  ('COc1c(NCCO)c2c(=O)cc(OC)c3c4c(OC)cc(=O)c5c(O)c(NCCO)c6c(c(c1CC(C)=C6)c23)c54', '27.500 M⁻¹ cm⁻¹'),
  ('COc1c2c3c4c(c(NCC(=O)O)c(=O)c5c(NCC(=O)O)cc(OC)c(c6c(OC)cc(O)c(c1=O)c63)c54)C=C(C)C2C(C)=O (stereo not drawn)', '27,500 M^−1cm^−1');

====

experiment: absorption spectrum (maximum absorption wavelength, molar extinction coefficient); assay type: physicochemical
This listing pairs molecules with measured maximum absorption wavelength.
ATTRIBUTE MEASURED: maximum absorption wavelength

INSERT INTO results (molecule, attribute_measured, result) VALUES
  ('CCNc1c(O)c2c(=O)cc(OC)c3c4c(OC)cc(=O)c5c(NC6CCCC6)c(OC)c6c(c(c1C=C(C)C6C(C)=O)c23)c54 (stereo not drawn) [HB-44b]', 'maximum absorption wavelength', '621 nm'),
  ('COc1c(O)c2c(=O)cc(OC)c3c4c(OC)cc(=O)c5c(NCCOCCO)c(NCCOCCO)c6c(c(c1CC(C)=C6)c23)c54', 'maximum absorption wavelength', '628 nm'),
  ('COCCOC(=O)C1CCCCC1Nc1c(NC2CCCCC2C(=O)OCCOC)c2c(=O)cc(OC)c3c4c(OC)cc(=O)c5c(O)c(OC)c6c(c(c1C=C(C)C6C(C)=O)c23)c54 (stereo not drawn) [HB-16a-PEG1]', 'maximum absorption wavelength', '624 nm'),
  ('COCCOCCC(=O)OCC1(Nc2c(NC3(COC(=O)CCOCCOC)CC3)c3c(=O)cc(OC)c4c5c(OC)cc(=O)c6c(O)c(OC)c7c(c(c2C=C(C)C7C(C)=O)c34)c65)CC1 (stereo not drawn) [HB-35a-PEG1]', 'maximum absorption wavelength', '624 nm'),
  ('COc1c2c3c4c(c(NCCOC(=O)N5CC(=O)NC(=O)C5)c(=O)c5c(O)cc(OC)c(c6c(OC)cc(NCCOC(=O)N7CC(=O)NC(=O)C7)c(c1=O)c63)c54)C=C(C)C2C(C)=O (stereo not drawn) [HB-40d]', 'maximum absorption wavelength', '628 nm'),
  ('COc1c2c3c4c(c(NCCCCCC(=O)O)c(=O)c5c(O)cc(OC)c(c6c(OC)cc(NCCCCCC(=O)O)c(c1=O)c63)c54)C=C(C)C2', 'maximum absorption wavelength', '624 nm');

====

assay: absorption spectrum (maximum absorption wavelength, molar extinction coefficient); type: physicochemical
This listing pairs compounds with measured molar extinction coefficient.
ATTRIBUTE MEASURED: molar extinction coefficient

INSERT INTO assay_data (compound, result) VALUES
  ('COc1c2c3c4c(c(NCCCS(=O)(=O)O)c(=O)c5c(NCS(=O)(=O)O)cc(OC)c(c6c(OC)cc(O)c(c1=O)c63)c54)C=C(C)C2 [HC-45c]', '22,000 M^−1cm^−1'),
  ('COCCOCCOCCOCCOCCOCCOCCOCCOCCOCCOCCOCCOCCC(=O)OCCNc1c2c3c4c(c(OC)c(=O)c5c(O)cc(OC)c(c6c(OC)cc(NCCOC(=O)CCOCCOCCOCCOCCOCCOCCOCCOCCOCCOCCOCCOCCOC)c(c1=O)c63)c54)C(C(C)=O)C(C)=C2 (stereo not drawn)', '32,500 M^−1cm^−1'),
  ('COc1c2c3c4c(c(NCCCC(=O)NCCCCCC[N+](C)(C)C)c(=O)c5c(NCCCC(=O)NCCCCCC[N+](C)(C)C)cc(OC)c(c6c(OC)cc(O)c(c1=O)c63)c54)C=C(C)C2', '32,000 M^−1cm^−1'),
  ('COc1c2c3c4c(c(NCCC5CCC(O)CC5)c(=O)c5c(O)cc(OC)c(c6c(OC)cc(NCCC7CCC(O)CC7)c(c1=O)c63)c54)C=C(C)C2C(C)=O (stereo not drawn) [HC-18d]', '23,500 M^−1cm^−1'),
  ('COc1c(O)c2c(=O)cc(OC)c3c4c(OC)cc(=O)c5c(NCCO)c(NCCO)c6c(c(c1CC(C)=C6)c23)c54', '28.500 M⁻¹ cm⁻¹'),
  ('COc1c2c3c4c(c(NCCO)c(=O)c5c(O)cc(OC)c(c6c(OC)cc(NCCO)c(c1=O)c63)c54)C=C(C)C2C(C)=O (stereo not drawn)', '30,000 M^−1cm^−1');
